Molecular target: Mitogen-activated protein kinase kinase kinase 3 (Homo sapiens)
Assay: modulators of MEKK3-MEK5 PB1 binding, primary screen, biochemical, wildtype MEKK3, multiplex bead flow cytometry, Alexa488-MEK5 (AID 1529);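 also: Alexa488 bead fluorescence after subtracting the streptavidin-only scavenger bead signal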
Conditions: bead-based flow cytometry, Alexa488-MEK5 binding to MEKK3; at 10 µM; actives lie on both sides; 0 = blocked by unlabeled MEK5, 100 = vehicle
The campaign covered roughly 290,000 compounds. About 4,200 (1.4%) were called active.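 The calls were made as follows: active = binding response more than 3 SD above or below the average of its plate-row segment, actives on both sides; inconclusive = wells at one plate position flagged as instrument error; inactive = the rest.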 The full list was thinned out, with actives kept by preference.
Just give me one of these, please: 1 (yes) = active, 0 (no) = inactive

The examples below pair each entry with its known result.
Exercise: Any idea what this test logged for "COc1ccc2nc(Nc3nc(-c4ccncc4)cs3)sc2c1" ?
Key: 0 (no)

Exercise: Any idea what this test logged for CCC(C)OC(=O)C(C)Oc1ccc(-c2ccccc2)cc1 (configuration not stated) ?
Key: 1 (yes)

Exercise: Any idea what this test logged for COc1ccc(N(C(=O)c2snc(C(N)=O)c2N)C(C(=O)NC2CCCC2)c2ccco2)cc1OC (configuration not stated) ?
Key: 0 (no)

Exercise: Any idea what this test logged for "CCN1CCN(CCCCOc2ccccc2F)CC1" ?
Key: 0 (no)

Exercise: Any idea what this test logged for "COc1ccc(NC(=O)CS(=O)(=O)c2ccccc2)cc1" ?
Key: 0 (no)

---
Exercise: Any idea what this test logged for "CCOC(=O)c1ccc(Nc2cc3ccccc3c(=O)[nH]2)cc1" ?
Key: 0 (no)

Exercise: Any idea what this test logged for "CCOc1ccc(C(=O)Nc2ccc(CN3CCOCC3)cc2)cc1Cl" ?
Key: 0 (no)
